// data source = patent US9611277B2

system: rat orexin 1 receptor (Rattus norvegicus)
protocol_details: Rat orexin 1 receptor radioligand binding
condition_set: rat orexin 1 receptor; averages of 2-20 runs; read-out: rOX1 Ki
quantity: Ki (nM)

compound_string: O=C(c1cccc(F)c1-c1ncccn1)N1C[C@H]2C[C@@H](Nc3cnc(C(F)(F)F)cn3)[C@@H]1C2
Ki, nM: 7

[1] O=C(c1ccc(F)cc1-c1ncccn1)N1C[C@H]2C[C@@H](Nc3ncc(Cl)cn3)[C@@H]1C2
[2] Cc1ccc(-n2nccn2)c(C(=O)N2C[C@H]3C[C@@H](Oc4ccc(Cl)cn4)[C@@H]2C3)n1
Req: Could you kindly indicate whether 1 or 2 has the higher Ki value? Please indicate the selected item by its label.
Resp: 1
